Can you tell me IC50(µg/mL), OX40L blockade assay (luminescence of NFκB-luc2/OX40 Jurkat cells) for the items I'm about to list?
- System Under Test: T1, human OX40L protein (OX40L-his), Acro Biosystems Cat #OXL-H52Q8 (human, UniProt P23510 51-183)
- T1 sequence: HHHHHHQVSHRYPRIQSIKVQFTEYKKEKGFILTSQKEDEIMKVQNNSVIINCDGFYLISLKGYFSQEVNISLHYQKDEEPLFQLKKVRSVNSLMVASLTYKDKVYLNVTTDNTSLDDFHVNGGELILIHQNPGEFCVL
- Protocol Notes: cell-based or functional assay
Numbers only, in µg/mL.

binder="reference anti-OX40L antibody O4L (VH and VL of oxelumab) (antibody, human IgG4 S228P, kappa, V domains shown) VH: EVQLLESGGGLVQPGGSLRLSCAASGFTFNSYAMSWVRQAPGKGLEWVSIISGSGGFTYYADSVKGRFTISRDNSRTTLYLQMNSLRAEDTAVYYCAKDRLVAPGTFDYWGQGALVTVSS VL: DIQMTQSPSSLSASVGDRVTITCRASQGISSWLAWYQQKPEKAPKSLIYAASSLQSGVPSRFSGSGSGTDFTLTISSLQPEDFATYYCQQYNSYPYTFGQGTKLEIKR" observed_value=0.293
binder="anti-OX40L antibody 21G07 (antibody, human IgG4 S228P, kappa, V domains shown, Chimeric; IgG4 S228P / kappa) VH: QVQLQQSGAELVKPGASVKLSCKASGYTFTNYWMQWVKQRPGQGLEWIGEIDPSDGRTNYNEKFKNKATLTVDRSSSTAYIKLSSLTSEDSAVYYCAREVSLRSMDYWGQGTSVTVSS VL: DIVLTQSPLSLPVSLGDQASISCRSSQSLVHSNGNTYLHWYLQKPGQSPKLLIYKVSNRFSGVPDRFSGSGSGTDFTLKISRVEAEDLGVYFCSQSTHVPFTFGSGTKLEIKR" observed_value=0.128
binder="anti-OX40L antibody 10H07 (antibody, human IgG4 S228P, kappa, V domains shown, Chimeric; IgG4 S228P / kappa) VH: QVYLQQSGAELVKPGASVKLSCKASGYTFTDYWMHWVKQRPGQGLEWIGEIDPGNGRTNYNEKFKNKATLSVDKSSNTAYMQFSSLTSEDSAVFYCASEGAGRGFPYWGQGTLVTVSA VL: DVVLTQTPLSLPVSLGDQASISCRSSQSLVHSNGNTYLHWYLQKPGQSPKLLIYKVSNRFSGVPDRFSGSGSGTDFTLKISRVEAEDLGVYFCSQSTHVPWTFGGGTKLEIKR" observed_value=0.061

input: Return reported IC50(µg/mL), OX40L blockade assay (luminescence of NFκB-luc2/OX40 Jurkat cells); argument: anti-OX40L antibody Hu3F07 (antibody, human IgG4 S228P, kappa, V domains shown, Humanized; IgG4 S228P / kappa) VH: QVQLVQSGAEVKKPGASVKVSCKASGFTFPDYWMHWVRQAPGQGLEWMGEIDPPNGRTNYNEKFKSRVTMTRDTSISTAYMELSRLRSDDTAVYYCARGIYYVDYWGQGTTVTVSS VL: DIVMTQSPLSLPVTLGEPASISCRSSQSLVHSNGNTYLHWYLQKPGQSPQLLIYKVSNRFSGVPDRFSGSGSGTDFTLKISRVEAEDVGVYYCSQSTHVPPTFGGGTKLEIKR
output: 0.03
